Method: Cell Proliferation Assay against the HBL1 Cell Line (AID 651646);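 further: cells exposed to compound for 48 h before reading; 100% = DMSO and 0% = 9.2 µM bortezomib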
Condition details: HBL1 DLBCL cells; at 46.1 µM (top of the series) unless noted
Kindly state viability, percent of control for each of the entries shown.
Just the number plus its unit, please.

The molecule identified as NC(=O)c1ccc(I)c([N+](=O)[O-])c1 registered its viability, percent of control at 76.7%

Reported viability, percent of control ( Cc1ccc(-n2nc(C(C)(C)C)cc2NC(=O)Nc2ccc(OCCN3CCOCC3)c3ccccc23)cc1 ) = 65.5%

Entry under test: O=C(Nc1nc2ccccc2n1CCN1CCOCC1)c1cccc([N+](=O)[O-])c1 . Its viability, percent of control was 89.4%

Item: CN[C@@H](C)C(=O)N[C@H]1CCCC[C@H]2CC[C@@H](C(=O)N[C@@H](c3ccccc3)c3cn(CCCCc4ccc(CCCCn5cc([C@@H](NC(=O)[C@@H]6CC[C@@H]7CCCC[C@H](NC(=O)[C@H](C)NC)C(=O)N76)c6ccccc6)nn5)cc4)nn3)N2C1=O | viability, percent of control: 15.5%

The reported value for Cc1oncc1C(=O)Nc1ccc(C(F)(F)F)cc1 in terms of viability, percent of control is 84%

Reported viability, percent of control ( Cn1c(=O)c(F)c(Nc2ccc(I)cc2F)c2c(=O)n(C[C@@H](O)CO)cnc21 ) = 38.3%

The value of viability, percent of control measured for the molecule CNC(=O)c1ccc(N2C(=S)N(c3ccc(C#N)c(C(F)(F)F)c3)C(=O)C2(C)C)cc1F turned out to be 83.2%

// viability, percent of control lookup, molecule = O=C(c1cc(Cc2n[nH]c(=O)c3ccccc23)ccc1F)N1CCN(C(=O)C2CC2)CC1 , result: 64.8%

For record CCCS(=O)(=O)Nc1ccc(F)c(C(=O)c2c[nH]c3ncc(Cl)cc23)c1F the listed viability, percent of control is 70.6%

viability, percent of control recorded for this molecule, COc1ccc(-c2ccc3c(N4CCOCC4)nc(N4C[C@@H](C)O[C@@H](C)C4)nc3n2)cc1CO , is 57.7%

Looking up Cc1cc(Nc2nc(N[C@@H](C)c3ncc(F)cn3)ncc2Cl)n[nH]1 , I found its viability, percent of control recorded as 138%

Just so you know, measured viability, percent of control for C[C@]12CC[C@H](O)CC1=CC[C@@H]1[C@H]2CC[C@]2(C)C(c3cccnc3)=CC[C@H]12 came out at 52.7%

Value source: PubChem BioAssay (NCATS)
